Target: 11βHSD1 (Homo sapiens, UniProt P28845)
Sequence (P28845 whole entry): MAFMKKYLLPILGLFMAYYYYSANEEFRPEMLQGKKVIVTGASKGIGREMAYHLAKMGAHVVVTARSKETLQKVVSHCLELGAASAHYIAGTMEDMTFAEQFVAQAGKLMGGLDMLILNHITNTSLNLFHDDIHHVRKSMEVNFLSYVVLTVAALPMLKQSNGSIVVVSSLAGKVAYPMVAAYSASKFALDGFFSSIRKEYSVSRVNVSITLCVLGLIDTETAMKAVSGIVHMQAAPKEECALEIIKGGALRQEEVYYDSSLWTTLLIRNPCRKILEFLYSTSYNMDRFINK
QUANTITY_KIND: IC50 (nM)

>>> df
                               input_smiles  result
0  O=C(N[C@H]1C2CC3CC1C[C@](O)(C3)C2)c1csc(Nc2ccc(Cl)cn2)n1      19

* * *

Biological target: 11βHSD1 (Homo sapiens, UniProt P28845)
Construct: from tissue
Experiment: in vitro 11β-HSD assay (human microsomes, CISBIO cortisol kit)
Type: biochemical
Conditions: 160 nM cortisone, 200 μM NADPH, 2 h at 37° C., pH 6.0
Listed next: entries and their corresponding EC50.
QUANTITY_KIND: EC50 (nM)

>>> print(df.to_string())
                               input_smiles  quantity_kind  endpoint_unit  result
0  O=C(N[C@H]1C2CC3CC1C[C@](O)(C3)C2)c1csc(Nc2ccc(Cl)c(Cl)c2)n1           EC50             nM     112
1  O=C(N[C@H]1C2CC3CC1C[C@](O)(C3)C2)c1csc(Nc2ccncc2)n1           EC50             nM     110
2  O=C(N[C@H]1C2CC3CC1C[C@](O)(C3)C2)c1csc(Nc2ccc(C(F)(F)F)cc2)n1           EC50             nM      13
3  O=C(N[C@H]1C2CC3CC1C[C@](O)(C3)C2)c1csc(NCCc2ccccc2)n1           EC50             nM      11
4  O=C(N[C@H]1C2CC3CC1C[C@](O)(C3)C2)c1csc(Nc2ccc(Cl)cn2)n1           EC50             nM      31
5  O=C(N[C@H]1C2CC3CC1C[C@](O)(C3)C2)c1csc(Nc2ccccn2)n1           EC50             nM    4000
6  O=C(N[C@H]1C2CC3CC1C[C@](O)(C3)C2)c1csc(Nc2ccc(Cl)cc2)n1           EC50             nM     8.7
7  O=C(N[C@H]1C2CC3CC1C[C@](O)(C3)C2)c1csc(NCc2ccco2)n1           EC50             nM     360
8  O=C(N[C@H]1C2CC3CC1C[C@](O)(C3)C2)c1csc(Nc2cccnc2)n1           EC50             nM      26
9  O=C(N[C@H]1C2CC3CC1C[C@](O)(C3)C2)c1csc(NCCc2ccncc2)n1           EC50             nM     369

* * *

Listed next: entries and their corresponding EC50.
Biological target: 11βHSD1 (Homo sapiens)
Construct: from tissue
Test: in vitro 11β-HSD assay (human microsomes, CISBIO cortisol kit)
Type: biochemical
Conditions: 160 nM cortisone, 200 μM NADPH, 2 h at 37° C., pH 6.0
QUANTITY_KIND: EC50 (nM)

                               input_smiles  quantity_kind  result
0  O=C(N[C@H]1C2CC3CC1C[C@](O)(C3)C2)c1csc(NCCc2cccnc2)n1           EC50     165
1  O=C(N[C@H]1C2CC3CC1C[C@](O)(C3)C2)c1csc(Nc2ccc(F)cc2)n1           EC50     2.7
2  O=C(N[C@H]1C2CC3CC1C[C@](O)(C3)C2)c1csc(NCCc2ccccn2)n1           EC50     127
3  O=C(N[C@H]1C2CC3CC1C[C@](O)(C3)C2)c1cnc(Nc2ccc(Cl)cn2)s1           EC50      31
4  O=C(N[C@H]1C2CC3CC1C[C@](O)(C3)C2)c1csc(NCc2ccccc2)n1           EC50      78
5  COc1ccc(Nc2nc(C(=O)N[C@H]3C4CC5CC3C[C@](O)(C5)C4)cs2)cc1           EC50       2
6  Cc1nc(NCCc2ccccc2)sc1C(=O)N[C@H]1C2CC3CC1C[C@](O)(C3)C2           EC50      48
7  O=C(N[C@H]1C2CC3CC1C[C@](O)(C3)C2)c1csc(NCc2cccnc2)n1           EC50      39

Where these numbers come from: patent US8513430B2
